- System: Escherichia coli
- measurement-protocol: Antibacterial activity against Escherichia coli KCTC 1682 in presence of 2.5 mM CaCl2 after 24 hrs
- Type: functional
- reported-conditions: KCTC 1682, 24 h
assay-readout: MIC (µM)
The answer is to be given in µM; state only the numeric part.

The recorded MIC for entry CC[C@H](C)[C@H](NC(=O)[C@H](CCCNC(=N)N)NC(=O)[C@@H](N)CCCCN)C(=O)N[C@H](C(=O)N[C@@H](CCCCN)C(=O)N[C@H](CC(C)C)C(=O)N[C@H](C(=O)N[C@@H](CC(C)C)C(=O)N[C@@H](CCCCN)C(=O)N[C@@H](Cc1c[nH]c2ccccc12)C(=O)N[C@@H](CC(C)C)C(=O)N[C@@H](CCCNC(=N)N)C(N)=O)[C@@H](C)CC)C(C)C equals 16
